assay overview: clinical
reported conditions: human, plasma, 200 mg

{"item smiles": "Cc1ccc(-c2cc(C(F)(F)F)nn2-c2ccc(S(N)(=O)=O)cc2)cc1", "AUC, ng·h/mL": 6800}
